The reader will find reported TGI values listed item by item below.
- Tested on: SF-539 CNS
- experimental-details: NCI tumour cell line growth inhibition, 48 h

# molecule, result-qualifier, TGI (µM)
records = [
    ("C[Si](C)(C)/C=C/CCC(C=O)(CCCl)c1ccccc1 (stereo not given)", ">", 100),
    ("O=C1C2c3[nH]c4ccccc4c3[C@@H]3CCCCCCCCCCC3C2C(=O)N1c1ccccc1 (stereo not given in full)", "=", 24.3),
    ("COc1ccc(SC2c3cc(OC)c(OC)cc3Oc3nc(N)c(C#N)c(N)c32)cc1 (stereo not given)", "=", 2.68),
    ("O=C1c2ccccc2C(=O)c2c1ccc(C(Br)Br)c2[N+](=O)[O-]", "=", 3.41),
    ("O=C1NC(=O)/C(=C/C=C/c2ccccc2)S1", "=", 3.16),
]

* * *

- Tested on: NCI/ADR-RES ovarian
- experimental-details: NCI tumour cell line growth inhibition, 48 h
The reader will find reported TGI values listed item by item below.

# compound, result-qualifier, TGI, µM
records = [
    ("Cc1ccc(S(=O)(=O)n2cncc2CO)cc1", ">", 100),
    ("N#Cc1c(Nc2ccc(F)cc2)[n+]([O-])c2ccc(Cl)cc2[n+]1[O-]", "=", 5.37),
    ("C/C(=C\\c1ccc(Cl)cc1)C(C)(C)C(=O)O", ">", 100),
    ("CN1/C(=C\\C(I)C(I)C2=[N+](C)c3ccccc3C2(C)C)C(C)(C)c2ccccc21 (stereo not given)", "=", 42.2),
    ("CCC1(CC)C(=O)CC[C@@]2(C)C1=CC[C@H]1[C@@H]3CC[C@H](O)[C@@]3(C)CC[C@@H]12", ">", 100),
]

* * *

- System: NCI/ADR-RES ovarian
- experimental-details: NCI tumour cell line growth inhibition, 48 h; in the data active = GI50 below about 0.43 µM; inactive = the rest
Outcome codes: y for active, n for inactive

# compound, assigned-class
records = [
    ("COc1ccc(-c2oc(=O)ccc2C#Cc2cc(OC)c(OC)c(OC)c2)cc1O", "n"),
    ("CC(CN=C(CC(=O)c1ccc(Br)cc1)c1ccccc1)N=C(CC(=O)c1ccc(Br)cc1)c1ccccc1 (configuration not stated)", "n"),
    ("Cn1nc(C(F)(F)F)c(-c2ccc(Cl)c(C(F)(F)F)c2)c1-c1ccc(OCc2ccc(Cl)cc2)cc1O", "n"),
    ("Cc1ccc2c(c1)C(=O)c1c-2n(CCCN)c(=O)c2cc([N+](=O)[O-])ccc12", "n"),
    ("CCOC(=O)c1sc(-c2ccc(OS(=O)(=O)c3cccs3)c(C=O)c2)nc1C", "n"),
    ("COc1cc(C)c(C(=O)O[C@H]2[C@H](O[C@H]3[C@@H](O)COC(O[C@H]4C[C@H]5[C@@H]6CC=C7C[C@@H](O)CC[C@]7(C)[C@H]6CC[C@]5(C)[C@H]4[C@H](C)C(=O)CCC(C)C)[C@@H]3OC(C)=O)OC[C@@H](O)[C@@H]2O)c(C)c1 (some centres not stated)", "n"),
    ("CCN1CCN(c2nc(NNC(=O)Cc3ccccc3)nc(N3CCN(C(c4ccccc4)c4ccccc4)CC3)n2)CC1", "n"),
    ("CC(=O)Oc1ccc(OC(C)=O)c2ccccc12", "n"),
    ("COc1cc(-c2cc(-c3ccc(N(C)C)cc3)nc(N3CCOCC3)c2C#N)cc(OC)c1OC", "y"),
    ("Cn1c2ccccc2c(=Nc2ccccc2)c2c3ccccc3[nH]c21", "n"),
    ("CCN(CC)CCN1C(=O)c2c(c(C)c3c(oc4cc(O)ccc43)c2C)C1=O", "n"),
    ("Cl.[Pt].[c-]1ccccc1-c1ccccn1.c1ccc(P(c2ccccc2)C([PH+](c2ccccc2)c2ccccc2)[PH+](c2ccccc2)c2ccccc2)cc1", "n"),
]
